Target or system Acetylcholinesterase (Electrophorus electricus, UniProt O42275); recorded quantity pIC50.
API: returns pIC50 as number; meaning -log10 of concentration in mol/L.

Note pIC50 for the compound shown: "C=CCN1CC[C@]23CC(=O)CC[C@H]2[C@H]1Cc1cccc(OC(C)=O)c13"
3.71

Answer with the recorded pIC50 of "COc1cccc2c1[C@]13CCN(C)[C@H](C2)[C@]1(OC)CCC(=O)C3" only.
4.34

Indicate its recorded pIC50; the compound in question is "O=CN1CC[C@]23c4c5cccc4O[C@H]2C(=O)CC[C@H]3[C@H]1C5"
4.22

Please supply the value of reported pIC50 for the item "CCO[C@@]12CCC(=O)C[C@@]13CCN(C)[C@@H]2Cc1cccc(O)c13"
4.43

Note down pIC50 recorded for "COc1cccc(CC2=NCCc3cc(OC)ccc32)c1"
4.37

Find the measured pIC50 of "COc1ccc2c3c1O[C@H]1C(=O)CC[C@@]4(O)[C@@H](C2)N(C)CC[C@]314" and report it.
4.12

Look up and state reported pIC50 for O=CN1CC[C@]23CC(=O)CC[C@H]2[C@H]1CC1C(=O)C=CC(=O)C13 (some centres not stated)
4.90

Return pIC50 for the following compound: COC1CCC2C(Cc3cccc(O)c3)=NCCC2C1 (configuration not stated)
4.37

Return the recorded pIC50 value; entry: "CO[C@@]12CCC(=O)[C@@H]3Oc4cccc5c4[C@@]31CCN(C)[C@@H]2C5"
3.85

Supply reported pIC50 belonging to this compound: COC1=CCC2=C(CCNC2Cc2ccccc2O)C1 (configuration not stated)
3.86

Please give the documented pIC50 of "CCCCCCOc1cccc2c1[C@]13CCN(CC4CC4)[C@H](C2)[C@]1(OC)C=CC(=O)C3"
3.39

Given "CN1CC[C@]23c4c5cccc4O[C@H]2C(=O)CC[C@@]3(O)[C@H]1C5" , respond with its pIC50.
4.19

====

Mu-type opioid receptor (Rattus norvegicus, UniProt P33535): reported pKi for various molecules.
Sequence (P33535 whole entry): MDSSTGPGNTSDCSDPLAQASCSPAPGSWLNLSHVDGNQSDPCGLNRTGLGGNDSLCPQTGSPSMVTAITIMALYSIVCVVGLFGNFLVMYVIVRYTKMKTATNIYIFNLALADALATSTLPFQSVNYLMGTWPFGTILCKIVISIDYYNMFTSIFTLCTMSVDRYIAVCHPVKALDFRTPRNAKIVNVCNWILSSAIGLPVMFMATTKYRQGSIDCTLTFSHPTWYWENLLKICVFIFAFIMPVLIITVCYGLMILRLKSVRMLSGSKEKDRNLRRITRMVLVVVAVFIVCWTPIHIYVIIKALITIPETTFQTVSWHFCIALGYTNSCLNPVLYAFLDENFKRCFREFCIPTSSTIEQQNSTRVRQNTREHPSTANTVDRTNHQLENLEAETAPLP
# reply with the number alone; pKi is -log10 of concentration in mol/L

Identify measured pKi corresponding to "O=CN1CC[C@]23CC(=O)CC[C@H]2[C@H]1Cc1c(O)ccc(O)c13"
7.17

Please supply the value of reported pKi for the item O=CN1CC[C@]23CC(=O)CC[C@H]2[C@H]1CC1C(=O)C=CC(=O)C13 (stereo not given in full)
9.34

Read off the recorded pKi for "CCO[C@@]12CCC(=O)[C@]3(C)Oc4c(O)ccc5c4[C@@]31CCN(C)[C@@H]2C5"
10.00

Identify the reported pKi for the following entry. "C=CCN1CC[C@]23CC(=O)CC[C@H]2[C@H]1Cc1cccc(OC)c13"
8.18

====

endpoint: Ki (nM)
Output spec: scalar in nM, unitless text.

Tell me its Ki on Mu-type opioid receptor (Rattus norvegicus): "COc1cccc2c1[C@]13CCN(C)[C@H](C2)[C@]1(OC)CCC(=O)C3"
1.15

Identify measured Ki obtained with Mu-type opioid receptor (Rattus norvegicus) for "CCO[C@@]12CCC(=O)C[C@@]13CCN(C)[C@@H]2Cc1cccc(O)c13" .
20.2

System Mu-type opioid receptor (Rattus norvegicus). Read-out Ki. Item "C=CCN1CC[C@]23CC(=O)CC[C@@]2(OC)[C@H]1Cc1cccc(OC)c13" . Report value.
2

Report the value of Ki obtained on Mu-type opioid receptor (Rattus norvegicus) for COC1CCC2C(Cc3cccc(O)c3)=NCCC2C1 (stereo not given) .
2320

// data source = ChEMBL document CHEMBL1250431
